inhibition at 1 µM listing for selected molecules.
Target: Human Recombinant Matriptase 2 (Homo sapiens, UniProt Q8IU80)
Construct: purchased Enzo Life Sciences (an in-house preparation was also used) ALX-201-752-1
Sequence (Q8IU80 whole entry): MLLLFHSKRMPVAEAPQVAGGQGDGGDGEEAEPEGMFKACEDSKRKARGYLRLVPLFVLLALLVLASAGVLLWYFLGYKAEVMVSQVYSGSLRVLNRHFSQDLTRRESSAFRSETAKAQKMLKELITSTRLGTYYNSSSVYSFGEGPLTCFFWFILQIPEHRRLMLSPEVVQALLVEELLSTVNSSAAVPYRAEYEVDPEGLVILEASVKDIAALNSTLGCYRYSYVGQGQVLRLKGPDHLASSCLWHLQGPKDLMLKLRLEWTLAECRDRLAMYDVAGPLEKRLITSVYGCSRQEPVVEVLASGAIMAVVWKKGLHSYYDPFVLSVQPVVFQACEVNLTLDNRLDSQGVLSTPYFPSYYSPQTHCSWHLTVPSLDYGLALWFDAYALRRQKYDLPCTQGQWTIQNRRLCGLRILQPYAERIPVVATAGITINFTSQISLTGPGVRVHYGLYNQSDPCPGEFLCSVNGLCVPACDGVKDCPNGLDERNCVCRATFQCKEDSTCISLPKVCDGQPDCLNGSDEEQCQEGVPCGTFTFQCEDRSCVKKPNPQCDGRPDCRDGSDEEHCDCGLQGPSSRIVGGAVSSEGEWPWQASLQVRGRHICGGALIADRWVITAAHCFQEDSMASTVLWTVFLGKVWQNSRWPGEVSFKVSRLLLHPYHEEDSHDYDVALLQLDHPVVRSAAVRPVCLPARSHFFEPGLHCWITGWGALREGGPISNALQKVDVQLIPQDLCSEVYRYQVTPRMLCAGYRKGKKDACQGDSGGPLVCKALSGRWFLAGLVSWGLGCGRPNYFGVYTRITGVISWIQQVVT
Experiment: Matriptase 2 fluorescence based inhibition assay, Method B (50 mM TRIS pH 7.5, 150 mM NaCl, 0.01% gelatin)
Format: biochemical
Conditions: 1 uM compound; Assay Used = B (Method B); read-out: Mar-2 % inhibition at 1 uM
measured-attribute: inhibition at 1 µM

1. N=C(N)c1ccc2cc(C(=O)O)n(Cc3cccc4c(Oc5ccccc5)cccc34)c2c1 | 50 to 75%
2. CCOC(=O)c1cc2ccc(C(=N)N)cc2n1Cc1cc(Oc2ncccn2)cc2ccccc12 | 75 to 100%
3. CCOC(=O)c1cc2ccc(C(=N)NC(=O)OCC(C)C)cc2n1Cc1cc(Oc2ccccc2)cc2ccccc12 | 0 to 25%
4. N=C(N)c1ccc2cc(C(=O)O)n(Cc3c[nH]c4ccccc34)c2n1 | 25 to 50%
5. N=C(N)c1ccc2cc(C(=O)N[C@H]3CC[C@H](N)CC3)n(Cc3c(Cl)c(Sc4ccccc4)cc4ccccc34)c2c1 | 50 to 75%
6. N=C(N)c1ccc2cc(C(=O)O)n(Cc3ccc(Oc4ccccc4)c4ccccc34)c2n1 | 25 to 50%
7. N=C(N)c1ccc2cc(C(=O)O)n(Cc3cc(Cc4ccccc4)cc4ccccc34)c2c1 | 0 to 25%
8. N=C(N)c1ccc2cc(C(=O)N[C@H]3CC[C@H](N)CC3)n(C[C@H]3CCc4ccccc43)c2c1 (racemic) | 25 to 50%
9. N=C(N)c1ccc2cc(C(=O)NC3CCC(N)CC3)n(Cc3ccc(CN)c4ccccc34)c2c1 (stereo not drawn) | 50 to 75%
10. N=C(N)c1ccc2cc(C(=O)O)n(Cc3cc(O)cc4ccccc34)c2c1 | 75 to 100%
11. N=C(N)c1ccc2cc(C(=O)O)n(Cc3cc(Oc4ccncc4)cc4ccccc34)c2c1 | 50 to 75%
12. N=C(N)c1ccc2cc(C(=O)N[C@H]3CC[C@H](N)CC3)n(Cc3cccc4c(Br)cccc34)c2c1 | 75 to 100%
13. N=C(N)c1ccc2cc(C(=O)O)n(Cc3cc(S(=O)(=O)c4ccccc4)cc4ccccc34)c2c1 | 50 to 75%
14. N=C(N)c1ccc2cc(C(=O)O)n(Cc3cc(Oc4ccsc4)cc4ccccc34)c2c1 | 50 to 75%
15. N=C(N)c1ccc2cc(C(=O)O)n(Cc3cc(OC4CCCCC4)cc4ccccc34)c2c1 | 25 to 50%
16. CC(C)(C)S(=O)(=O)c1cccc2c(Cn3c(C(=O)N[C@H]4CC[C@H](N)CC4)cc4ccc(C(=N)N)cc43)cccc12 | 50 to 75%
17. N/C(=N/O)c1ccc2cc(C(=O)O)n(Cc3cccc4ccccc34)c2c1 | 0 to 25%
18. N=C(N)c1ccc2cc(C(=O)N[C@H]3CC[C@H](N)CC3)n(Cc3cc(OS(=O)(=O)c4ccccc4)cc4ccccc34)c2c1 | 75 to 100%
19. Cn1c(C(=O)O)c(-c2ccc3ccccc3c2)c2cc(C(=N)N)ccc21 | 0 to 25%
20. N=C(N)c1ccc2cc(C(=O)N[C@H]3CC[C@H](NC(N)=O)CC3)n(Cc3cccc4ccccc34)c2c1 | 50 to 75%
21. CN1CCC(OC(=O)c2cc3ccc(C(=N)N)cc3n2Cc2cccc3ccccc23)CC1 | 75 to 100%
22. CS(=O)(=O)Oc1cc(Cn2c(C(=O)O)cc3ccc(C(=N)N)cc32)c2ccccc2c1 | 50 to 75%
23. N=C(N)c1ccc2cc(-c3ncco3)n(Cc3cccc4ccccc34)c2c1 | 75 to 100%
24. N/C(=N/O)c1ccc2cc(C(=O)O)n(Cc3cc(Oc4ncccn4)cc4ccccc34)c2c1 | 0 to 25%
25. CC(=O)N[C@H]1CC[C@H](NC(=O)c2cc3ccc(C(=N)N)cc3n2Cc2cccc3ccccc23)CC1 | 50 to 75%
26. N=C(N)c1ccc2cc(C(=O)N[C@H]3CC[C@H](N)CC3)n(Cc3cc(Oc4ccccc4F)cc4ccccc34)c2c1 | 75 to 100%
27. CCCCCCOC(=O)NC(=N)c1ccc2cc(C(=O)O)n(Cc3cccc4ccccc34)c2c1 | 0 to 25%
28. CC(C)COC(=O)NC(=N)c1ccc2cc(C(=O)O)n(Cc3cc(Oc4ccccc4)cc4ccccc34)c2c1 | 0 to 25%
29. CCOC(=O)c1cc2ccc(C(=N)N)cc2n1Cc1cc(Oc2ccccc2)cc2ccccc12 | 25 to 50%
30. N=C(N)c1ccc2cc(C(=O)O)n(Cc3csc4ccccc34)c2n1 | 50 to 75%
